Data provenance is patent US20230135894A1.

Target: MK2 (Homo sapiens, UniProt P49137)
Sequence (P49137 whole entry): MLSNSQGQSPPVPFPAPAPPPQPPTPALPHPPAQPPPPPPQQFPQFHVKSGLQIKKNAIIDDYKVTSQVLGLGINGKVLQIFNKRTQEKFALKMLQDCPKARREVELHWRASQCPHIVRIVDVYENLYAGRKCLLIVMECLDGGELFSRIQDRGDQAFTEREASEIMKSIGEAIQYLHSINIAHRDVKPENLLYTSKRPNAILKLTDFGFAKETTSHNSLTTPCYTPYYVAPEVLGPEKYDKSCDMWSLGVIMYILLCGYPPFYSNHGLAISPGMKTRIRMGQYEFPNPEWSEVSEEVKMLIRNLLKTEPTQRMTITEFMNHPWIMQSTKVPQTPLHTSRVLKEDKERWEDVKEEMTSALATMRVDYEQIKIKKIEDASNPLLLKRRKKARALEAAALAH
Assay: MK2 degradation in human SW1353 cells (MSD, 24 h)
Type: cell-based
Design: endogenous in cells; host or cells: SW-1353 (ATCC HTB-94)
Conditions: read-out: MK2 MSD SW1353 degradation 24 h GMean External Abs DC50
Protocol: MK2 Degradation in Human SW1353 Cells […] After 3 more washes, the secondary detection antibody (SULFO-Tag anti rabbit antibody R32AB-5) was added at a final concentration of 1 microgram per ml at 25 microlitres per well and shaken at room temperature for 1 hour at 600 rpm. After 3 more washes, the 1×MSD (diluted from 5× concentrate with water) reading buffer was added at 150 microlitres per well and read on the MSD instrument Meso Sector S 600. […]
measuredEndpoint: DC50

Some molecules with known DC50 results, for comparison:
molecule | DC50
COc1ccc2c(c1CCN1CCN(c3ccc(-c4cc(-c5cc6c([nH]5)C5(CC5)CNC6=O)ccn4)cc3)CC1)n(C)c(=O)n2C1CCC(=O)NC1=O (stereo not drawn) [Compound I-430] | < 1 nM
Cn1c(=O)n(C2CCC(=O)NC2=O)c2ccc(N3CCC(CN4CCN(c5ccc(-c6cc(-c7cc8c([nH]7)C7(CCCC7)CNC8=O)ccn6)c(F)c5)CC4)CC3)cc21 (stereo not drawn) [Compound I-424] | < 1 nM
C[C@@H]1Cc2oc(-c3ccnc(-c4ccc(N5CCN(CC6CCN(c7ccc8c(c7)n(C)c(=O)n8C7CCC(=O)NC7=O)CC6)CC5)cc4)c3)cc2C(=O)N1 (stereo partly drawn) [Compound I-208] | > 100 nM

Record lookup: for MK2 (Homo sapiens, UniProt P49137), what DC50 belongs to O=C1CCN(c2cncc3c(N4CC(CN5CCN(c6ccc(-c7cc(-c8cc9c([nH]8)C8(CC8)CNC9=O)ccn7)cc6)CC5)C4)cccc23)C(=O)N1 [Compound I-188] ?
1 to 10 nM

Record lookup: for MK2 (Homo sapiens, UniProt P49137), what DC50 belongs to Cn1c(=O)n(C2CCC(=O)NC2=O)c2cccc(CCCCCN3CCN(c4ccc(F)c(-c5cc(-c6cc7c([nH]6)CCNC7=O)ccn5)c4)CC3)c21 (stereo not drawn) [Compound I-134] ?
> 100 nM

Record lookup: for MK2 (Homo sapiens, UniProt P49137), what DC50 belongs to Cn1c(=O)n(C2CCC(=O)NC2=O)c2ccc(N3CC(CN4CCN(c5ccc(-c6nccc(-c7cc8c([nH]7)C7(CC7)CNC8=O)n6)c(F)c5)CC4)C3)cc21 (stereo not drawn) [Compound I-403] ?
< 1 nM

Record lookup: for MK2 (Homo sapiens, UniProt P49137), what DC50 belongs to C[C@@H]1CNc2c(sc3ccc4nc(-c5cc(C#N)cc(N6CCN(CC7CCN(c8ccc9c(c8)n(C)c(=O)n9C8CCC(=O)NC8=O)CC7)CC6)c5)ccc4c23)C(=O)N1 (stereo partly drawn) [Compound I-240] ?
< 1 nM

Record lookup: for MK2 (Homo sapiens, UniProt P49137), what DC50 belongs to C[C@@H]1CNc2c(sc3ccc4nc(-c5ccc(N6CCN(CCCCCc7ccc8c(c7)n(C)c(=O)n8C7CCC(=O)NC7=O)CC6)cc5)ccc4c23)C(=O)N1 (stereo partly drawn) [Compound I-174] ?
< 1 nM

Record lookup: for MK2 (Homo sapiens, UniProt P49137), what DC50 belongs to C[C@@H]1CNc2c(sc3ccc4nc(-c5cc(Cl)cc(N6CCN(CC7CCN(c8ccc9c(c8)n(C)c(=O)n9C8CCC(=O)NC8=O)CC7)CC6)c5)ccc4c23)C(=O)N1 (stereo partly drawn) [Compound I-216] ?
1 to 10 nM

Record lookup: for MK2 (Homo sapiens, UniProt P49137), what DC50 belongs to C[C@@H]1CNc2c(sc3ccc4nc(-c5ccc([C@H]6CC[C@H](CN7CCN(c8ccc9c(c8)n(C)c(=O)n9C8CCC(=O)NC8=O)CC7)CC6)nc5)ccc4c23)C(=O)N1 (stereo partly drawn) [Compound I-232] ?
< 1 nM

Record lookup: for MK2 (Homo sapiens, UniProt P49137), what DC50 belongs to C[C@@H]1CN(C)c2c(sc3ccc4nc(-c5ccc(N6CCC(CN7CCN(c8cccc9c(N%10CCC(=O)NC%10=O)cncc89)CC7)CC6)cc5)ccc4c23)C(=O)N1 [Compound I-261] ?
10 to 100 nM

Record lookup: for MK2 (Homo sapiens, UniProt P49137), what DC50 belongs to C[C@@H]1CNc2c(sc3ccc4nc(-c5cccc(N6CCN(CCCCCCCc7cccc8c7n(C)c(=O)n8C7CCC(=O)NC7=O)CC6)c5)ccc4c23)C(=O)N1 (stereo partly drawn) [Compound I-95] ?
1 to 10 nM
